These entries and their values trace back to patent US20220071996A1.

# test description: solubility of branaplam in selected excipients
# Assay type: physicochemical
# study conditions: 25 °C, pH 4, aqueous with cosolvent or surfactant or cyclodextrin, thermodynamic from solid, in Cremophor RH 40 15.0% (w/v), pH 4.0 buffer, RT; read-out: Solubility (mg/mL) RT
reported endpoint: solubility at 24 h (mg/mL)
Answer with a number only, understood to be in mg/mL.

Hello, please tell me recorded solubility at 24 h for this one: CC1(C)CC(Oc2ccc(-c3ccc(-c4cn[nH]c4)cc3O)nn2)CC(C)(C)N1 1.32

* * *

# test description: solubility of branaplam in selected excipients
# Type: physicochemical
# study conditions: aqueous excipient stock solution, 25 °C, pH 4, aqueous with cosolvent or surfactant or cyclodextrin, thermodynamic from solid, in Glycerol 5.0% (w/v), pH 4.0 buffer, RT; read-out: Solubility (mg/mL) RT
reported endpoint: solubility at 24 h

Hello, please tell me recorded solubility at 24 h for this one: CC1(C)CC(Oc2ccc(-c3ccc(-c4cn[nH]c4)cc3O)nn2)CC(C)(C)N1 0.18 mg/mL

* * *

# test description: solubility of branaplam in selected excipients
# Type: physicochemical
# study conditions: aqueous excipient stock solution, 25 °C, pH 4, aqueous with cosolvent or surfactant or cyclodextrin, thermodynamic from solid, in Tween 80 0.8% (w/v), pH 4.0 buffer, RT; read-out: Solubility (mg/mL) RT
reported endpoint: solubility at 24 h (mg/mL)
Answer with a number only, understood to be in mg/mL.

Hello, please tell me recorded solubility at 24 h for this one: CC1(C)CC(Oc2ccc(-c3ccc(-c4cn[nH]c4)cc3O)nn2)CC(C)(C)N1 0.28

* * *

# test description: solubility of branaplam in selected excipients
# Type: physicochemical
# study conditions: aqueous excipient stock solution, 2 °C, pH 4, aqueous with cosolvent or surfactant or cyclodextrin, thermodynamic from solid, in PEG 400 10.0% (w/v), pH 4.0 buffer, 2-8° C.; read-out: Solubility (mg/mL) 2-8° C.
reported endpoint: solubility at 24 h
Remember to put the unit after the number in your answer.

Hello, please tell me recorded solubility at 24 h for this one: CC1(C)CC(Oc2ccc(-c3ccc(-c4cn[nH]c4)cc3O)nn2)CC(C)(C)N1 [branaplam] 0.45 mg/mL

* * *

# test description: solubility of branaplam in selected excipients
# Assay type: physicochemical
# study conditions: aqueous excipient stock solution, 2 °C, pH 4, aqueous with cosolvent or surfactant or cyclodextrin, thermodynamic from solid, in Propylene glycol 10.0% (w/v), pH 4.0 buffer, 2-8° C.; read-out: Solubility (mg/mL) 2-8° C.
reported endpoint: solubility at 24 h (mg/mL)
Answer with a number only, understood to be in mg/mL.

Hello, please tell me recorded solubility at 24 h for this one: CC1(C)CC(Oc2ccc(-c3ccc(-c4cn[nH]c4)cc3O)nn2)CC(C)(C)N1 0.18

* * *

# test description: solubility of branaplam in selected excipients
# Format: physicochemical
# study conditions: Cremophor RH 40 7.0% (w/v) aqueous solution in pH 4.0 buffer, 25 °C, pH 4, aqueous with cosolvent or surfactant or cyclodextrin, thermodynamic from solid, in Cremophor RH 40 7.0% (w/v), pH 4.0 buffer, RT; read-out: Solubility (mg/mL) RT
reported endpoint: solubility at 24 h (mg/mL)
Answer with a number only, understood to be in mg/mL.

Hello, please tell me recorded solubility at 24 h for this one: CC1(C)CC(Oc2ccc(-c3ccc(-c4cn[nH]c4)cc3O)nn2)CC(C)(C)N1 0.84

* * *

# test description: solubility of branaplam in selected excipients
# Format: physicochemical
# study conditions: aqueous excipient stock solution, 25 °C, pH 4, aqueous with cosolvent or surfactant or cyclodextrin, thermodynamic from solid, in PEG 400 25.0% (w/v), pH 4.0 buffer, RT; read-out: Solubility (mg/mL) RT
reported endpoint: solubility at 24 h (mg/mL)
Answer with a number only, understood to be in mg/mL.

Hello, please tell me recorded solubility at 24 h for this one: CC1(C)CC(Oc2ccc(-c3ccc(-c4cn[nH]c4)cc3O)nn2)CC(C)(C)N1 [branaplam] 1.47

* * *

# test description: solubility of branaplam in selected excipients
# Format: physicochemical
# study conditions: aqueous excipient stock solution, 2 °C, pH 4, aqueous with cosolvent or surfactant or cyclodextrin, thermodynamic from solid, in Glycerol 5.0% (w/v), pH 4.0 buffer, 2-8° C.; read-out: Solubility (mg/mL) 2-8° C.
reported endpoint: solubility at 24 h
Remember to put the unit after the number in your answer.

Hello, please tell me recorded solubility at 24 h for this one: CC1(C)CC(Oc2ccc(-c3ccc(-c4cn[nH]c4)cc3O)nn2)CC(C)(C)N1 [branaplam] 0.2 mg/mL

* * *

# test description: solubility of branaplam in selected excipients
# Assay type: physicochemical
# study conditions: aqueous excipient stock solution, 2 °C, pH 4, aqueous with cosolvent or surfactant or cyclodextrin, thermodynamic from solid, in Propylene glycol 5.0% (w/v), pH 4.0 buffer, 2-8° C.; read-out: Solubility (mg/mL) 2-8° C.
reported endpoint: solubility at 24 h (mg/mL)
Answer with a number only, understood to be in mg/mL.

Hello, please tell me recorded solubility at 24 h for this one: CC1(C)CC(Oc2ccc(-c3ccc(-c4cn[nH]c4)cc3O)nn2)CC(C)(C)N1 0.16

* * *

# test description: solubility of branaplam in selected excipients
# Assay type: physicochemical
# study conditions: Cremophor RH 40 1.0% (w/v) aqueous solution in pH 4.0 buffer, 2 °C, pH 4, aqueous with cosolvent or surfactant or cyclodextrin, thermodynamic from solid, in Cremophor RH 40 1.0% (w/v), pH 4.0 buffer, 2-8° C.; read-out: Solubility (mg/mL) 2-8° C.
reported endpoint: solubility at 24 h
Remember to put the unit after the number in your answer.

Hello, please tell me recorded solubility at 24 h for this one: CC1(C)CC(Oc2ccc(-c3ccc(-c4cn[nH]c4)cc3O)nn2)CC(C)(C)N1 0.17 mg/mL

* * *

# test description: solubility in pH 6.8 and biorelevant media (FeSSIF V2, FaSSIF V2)
# study conditions: FeSSIF V2, fessif
reported endpoint: solubility (µg/mL)
Answer with a number only, understood to be in µg/mL.

Hello, please tell me recorded solubility for this one: CC1(C)CC(Oc2ccc(-c3ccc(-c4cn[nH]c4)cc3O)nn2)CC(C)(C)N1.Cl [Branaplam hydrochloride salt] 60

* * *

# test description: solubility of branaplam in selected excipients
# Assay type: physicochemical
# study conditions: aqueous excipient solution, 2 °C, pH 4, aqueous with cosolvent or surfactant or cyclodextrin, thermodynamic from solid, in Glycerol 5.0% (w/w), 2-8° C.; read-out: Solubility (mg/mL) 2-8° C.
reported endpoint: solubility at 24 h (mg/mL)
Answer with a number only, understood to be in mg/mL.

Hello, please tell me recorded solubility at 24 h for this one: CC1(C)CC(Oc2ccc(-c3ccc(-c4cn[nH]c4)cc3O)nn2)CC(C)(C)N1 0.2
